B1: High mobility group protein B1, P63159 (parent)
chain: MGKGDPKKPRGKMSSYAFFVQTCREEHKKKHPDASVNFSEFSKKCSERWKTMSAKEKGKFEDMAKADKARYEREMKTYIPPKGETKKKFKDPNAPKRPPSAFFLFCSEYRPKIKGEHPGLSIGDVAKKLGEMWNNTAADDKQPYEKKAAKLKEKYEKDIAAYRAKGKPDAAKKGVVKAEKSKKKKEEEDDEEDEEDEEEEEEEEDEDEEEDDDDE

variants of: B1; conditions: Rattus norvegicus; pH 7; 20 °C; Thermal; CD; HEPES 10 mM; NiSO4 1 mM; structure 1HME; whole UniProt chain shown
readout_type: unfolding free energy (kcal/mol)

[[record]]
variant_code = "D140H"
readout_type = "unfolding free energy"
recorded_value = 3.65

[[record]]
variant_code = "S121H"
readout_type = "unfolding free energy"
recorded_value = 1.2

[[record]]
variant_code = "D139H"
readout_type = "unfolding free energy"
recorded_value = 3.67

[[record]]
variant_code = "I122H"
readout_type = "unfolding free energy"
recorded_value = 2.7

[[record]]
variant_code = "G123H"
readout_type = "unfolding free energy"
recorded_value = 3.17

